Test: oral pharmacokinetics in rodents
Assay type: in vivo, rodents (mice, rats)
Settings: mice, rats, plasma, 5 mg/kg; rodents, oral; read-out: elimination half life (t1/2)

{"Input Smiles": "CCOc1ccc(-c2cc(C)cn2-c2ccc(S(N)(=O)=O)cc2)cc1", "half-life": "240 to 300 min"}

Each recorded value in this set is attributed to patent US20120052061A1.
